Values were extracted from PubChem BioAssay (NCI).

tested on: A498 renal; assay: NCI tumour cell line growth inhibition, 48 h
Recorded TGI for the following compounds
measured-parameter: TGI

1) CCOC(=O)[C@@]12C[C@](/C=C/OC)(O[Si](C)(C)C)[C@@]13c1cc(OC)c(OC)cc1CCN3C(=O)C2=O ... > 100 µM
2) CC[C@H](C)[C@H](NC(=O)[C@H]1CCCCN1C)C(=O)N(C)[C@H](CCc1nc(C(=O)N[C@@H](Cc2ccccc2)C[C@H](C)C(=O)O)cs1)C(C)C ... > 25 µM
3) Cc1ccc(C(=O)N/N=C(\N=Nc2ccc([N+](=O)[O-])cc2)c2ccc(N(CCC#N)CCC#N)cc2C)cc1 ... > 100 µM
4) CC1(C)N=C(N)N=C(N)N1c1ccc(CCCC(=O)Nc2ccc(S(=O)(=O)F)cc2)cc1 ... > 100 µM
